target: tooth pellicle (thin film derived from salivary glycoproteins, formed in a human mouth) (human); assay: phage ELISA on pellicle-coated bovine enamel, anti-M13-HRP, normalized to internal control
MEASUREMENT_NAME: O.D.450 (normalized)

In the examples that follow, each entry is paired with its recorded O.D.450 (normalized).
{"BINDER": "NGNNHTDIPNRSSYTGGSFA [DenP1]", "O.D.450 (normalized)": 1}
{"BINDER": "IYPNESMSTSNVRGPYHP [DenP22]", "O.D.450 (normalized)": 1.42}
{"BINDER": "ANELSTYAQTNPGSG [DenP25]", "O.D.450 (normalized)": 0.909}

Now consider the entry below.
Could you share which O.D.450 (normalized) value was measured for QVPDYLSPTHQKKAFLEIPT [DenP29] ?
0.976

Where do the numbers come from? From patent US20100247589A1.
